experiment: qHTS assay for identifying genotoxic compounds that show differential cytotoxicity against isogenic chicken DT40 cell lines with known DNA damage response pathways - wild type cell line (AID 743012); conditions: DT40 wild type chicken cells viability, CellTiter-Glo, 40 h; series mostly up to 68.4 µM; note: nearly all actives have a fitted effect of over 60% in size
Records with an inconclusive call do not appear. Activity calls are given as the source filed them. Calls come from the whole dose curve; as a rule, active = well fitted cell-killing curve with a large enough effect in the repeat runs; inconclusive = weak or mixed curves, or effect the other way; inactive = no such curve, though single readings can be large or run the other way.
Possible outcomes: true = active, false = inactive

- compound: "O=C(Cl)C(Cl)(Cl)Cl"
  qualitative-label: "false"
- compound: "Clc1ccc(C(Cl)(Cl)Cl)cn1"
  qualitative-label: "false"
- compound: "CCCOc1nn(C(=O)NS(=O)(=O)c2ccccc2C(=O)OC)c(=O)n1C"
  qualitative-label: "false"
- compound: "COc1cc(CCN)cc(OC)c1OC"
  qualitative-label: "false"
- compound: "CCOC(=O)CCl"
  qualitative-label: "false"
- compound: "CC(Cc1ccccc1)NCCn1cnc2c1c(=O)n(C)c(=O)n2C (configuration not stated)"
  qualitative-label: "true"
- compound: "N[C@@H](Cc1ccc(Oc2cc(I)c(O)c(I)c2)c(I)c1)C(=O)O"
  qualitative-label: "false"

###

Target: Cytochrome P450 2C19 (Homo sapiens) (UniProt P33261)
Sequence (P33261 whole entry, looked up): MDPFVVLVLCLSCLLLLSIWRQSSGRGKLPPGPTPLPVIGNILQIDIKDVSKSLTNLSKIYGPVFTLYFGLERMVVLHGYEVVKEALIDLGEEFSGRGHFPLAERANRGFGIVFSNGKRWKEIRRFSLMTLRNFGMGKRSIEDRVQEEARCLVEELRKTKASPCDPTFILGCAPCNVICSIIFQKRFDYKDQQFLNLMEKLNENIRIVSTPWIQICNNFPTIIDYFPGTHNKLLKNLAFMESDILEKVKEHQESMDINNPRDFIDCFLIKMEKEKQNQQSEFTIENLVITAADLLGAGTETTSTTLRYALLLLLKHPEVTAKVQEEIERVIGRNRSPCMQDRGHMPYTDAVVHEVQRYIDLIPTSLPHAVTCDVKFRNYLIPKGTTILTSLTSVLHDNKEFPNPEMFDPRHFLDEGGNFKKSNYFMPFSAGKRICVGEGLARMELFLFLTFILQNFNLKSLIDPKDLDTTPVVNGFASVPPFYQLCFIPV
Assay: Cytochrome P450 Family 2 Subfamily C Member 19 (CYP2C19) small molecule antagonists: luciferase reporter qHTS assay (AID 1671197); note: nearly all actives have a fitted effect of over 65% in size
Details: P450-Glo CYP2C19 enzyme, luciferin luminescence, 1 h; series mostly up to 115 µM
Source text: National Center for Advancing Translational Sciences [NCATS] U.S. Environmental Protection Agency [EPA] National Institutes of Environmental Health Sciences [NIEHS] National Toxicology Program [NTP] U.S. Food and Drug Administration [FDA] Cytochrome P450 (CYP) enzymes are membrane-bound hemeproteins that play a key role in metabolism of drugs and xenobiotics. […] The luciferin products formed are detected with a luciferin detection reagent, and the amount of light produced is proportional to CYP activity. […]
Results filed as inconclusive are left out. Active and inactive are the calls of the source. The call rests on the fitted dose curve; in most records, active means well fitted inhibition curve with a large enough effect in the repeat runs; inconclusive means weak or mixed curves; inactive means no such curve, though single readings can be large or run the other way.
Possible outcomes: y = active, n = inactive

- compound: "C1CN2CCC1CC2"
  qualitative-label: "y"
- compound: "C[C@]12C=CC(=O)C=C1CC[C@@H]1[C@@H]2CC[C@@]2(C)[C@H]1CC[C@]2(C)O"
  qualitative-label: "n"
- compound: "CC(C)(C1CCC(O)CC1)C1CCC(O)CC1 (configuration not stated)"
  qualitative-label: "y"
- compound: "Cc1cc(OC(=O)N(C)C)nn1C(=O)N(C)C"
  qualitative-label: "y"
- compound: "CNC(=O)Oc1cc(C)c(N(C)C)c(C)c1"
  qualitative-label: "y"
- compound: "C[C@H](N)C(=O)c1ccccc1"
  qualitative-label: "y"
- compound: "CCOC(=O)C(SP(=S)(OC)OC)c1ccccc1 (configuration not stated)"
  qualitative-label: "y"

###

assay: qHTS assay to identify small molecule antagonists of the retinoid acid receptor (RAR) signaling pathway - cell viability counter screen (AID 1159551); settings: C3RL4 cells viability, ATP luminescence (CellTiter-Glo), 6 h; series mostly up to 92.4 µM; note: nearly all actives have a fitted effect of over 35% in size
Results filed as inconclusive are left out. Active and inactive are the calls of the source. Calls follow the shape of the dose curve; as a rule, active = well fitted cell-killing curve with a large enough effect in the repeat runs; inconclusive = weak or mixed curves, or effect the other way; inactive = flat fitted curve, though single readings scatter.

- compound: "Cc1cccc2sc3nncn3c12"
  activity change, negative = cytotoxicity: "inactive"
- compound: "CCSC(=O)Cl"
  activity change, negative = cytotoxicity: "inactive"
- compound: "CC(C)[C@]12CC(=O)[C@H](C)[C@H]1C2"
  activity change, negative = cytotoxicity: "inactive"
- compound: "CCCOc1nn(C(=O)NS(=O)(=O)c2ccccc2C(=O)OC)c(=O)n1C"
  activity change, negative = cytotoxicity: "inactive"
- compound: "Clc1ccc(C(Cl)(Cl)Cl)cn1"
  activity change, negative = cytotoxicity: "inactive"
- compound: "ClCCCCCCCl"
  activity change, negative = cytotoxicity: "inactive"
- compound: "CCCCCCCC(=O)Cl"
  activity change, negative = cytotoxicity: "inactive"
- compound: "BrCC1CO1 (centres undefined)"
  activity change, negative = cytotoxicity: "inactive"
- compound: "Oc1ccc(Cc2ccc(O)cc2)cc1"
  activity change, negative = cytotoxicity: "inactive"
- compound: "CCCC(C)C1(CC)C(=O)N=C(S)NC1=O (centres undefined)"
  activity change, negative = cytotoxicity: "inactive"
- compound: "C=CCC1(C(C)CC)C(=O)NC(=O)NC1=O (centres undefined)"
  activity change, negative = cytotoxicity: "inactive"
- compound: "CCCN1CCC[C@@H]2Cc3nc(N)ncc3C[C@H]21"
  activity change, negative = cytotoxicity: "inactive"
- compound: "O=S1(=O)OCCO1"
  activity change, negative = cytotoxicity: "inactive"
- compound: "CCc1ccc(C2CCNCC2)cc1"
  activity change, negative = cytotoxicity: "inactive"
- compound: "NNCc1ccccc1"
  activity change, negative = cytotoxicity: "inactive"
- compound: "O=C(O)c1c(Cl)ccc2cc(Cl)cnc12"
  activity change, negative = cytotoxicity: "inactive"
- compound: "CC(=NC#N)N(C)Cc1ccc(Cl)nc1"
  activity change, negative = cytotoxicity: "inactive"
- compound: "Cl/C=C/CCl"
  activity change, negative = cytotoxicity: "inactive"
- compound: "CCOP(=S)(OCC)SCCl"
  activity change, negative = cytotoxicity: "inactive"
- compound: "S=C=S"
  activity change, negative = cytotoxicity: "inactive"
- compound: "C=CC1(C)OC(=O)N(c2cc(Cl)cc(Cl)c2)C1=O (centres undefined)"
  activity change, negative = cytotoxicity: "inactive"
- compound: "ClCC1CO1 (centres undefined)"
  activity change, negative = cytotoxicity: "inactive"
- compound: "CCNP(=S)(OC)O/C(C)=C/C(=O)OC(C)C (centres undefined)"
  activity change, negative = cytotoxicity: "inactive"
- compound: "COP(=O)(OC)O/C(C)=C/C(=O)N(C)C"
  activity change, negative = cytotoxicity: "inactive"

Origin of values: PubChem BioAssay (Tox21)
